# Tested on: KM12 colon
# assay: NCI-60 one-dose screen, 48 h (100 = growth as untreated, 0 = no growth, -100 = all killed)
# test-context: 10 µM unless noted
This is part of a sample that, as a whole, favours compounds with a hit. Of some 83,000 tested, about 20% had one in any assay.
Assign condition met to entries whose growth meets or exceeds 50%; assign condition not met to the rest.

# count of solved cases: 2
>>> print(df.to_string())
                                   molecule     classification
0  COc1ccc(-c2ccc(NC(=O)Nc3ccc(Cl)c(C(F)(F)F)c3)c(C)n2)cc1  condition not met
1  COc1ccc(-c2ccc(NC(=O)Nc3cccc(C(F)(F)F)c3)c(C)n2)cc1  condition not met

// inclusive: growth at least 50%? input: "Cc1cc(SCc2ccc(Cl)cc2Cl)nc(SCc2ccc(Cl)cc2Cl)n1"
condition met

// inclusive: growth at least 50%? input: CC1CCC(C(C)C)C(NN)C1 (stereo not given)
condition met

// inclusive: growth at least 50%? input: "CC(=O)CC/C=C(\C)[C@H](O)[C@H](C)C(=O)O[C@H]1C[C@H](C)C=C2C=C[C@@]3(C)O[C@@H](O)CC(=O)[C@]3(C)[C@H]21"
condition not met

// inclusive: growth at least 50%? input: "CCCc1nn2c(CCC(=O)c3nc4ccc([N+](=O)[O-])cc4[nH]3)nnc2s1"
condition met

// inclusive: growth at least 50%? input: "Nc1nccc(=S)[nH]1"
condition met

// inclusive: growth at least 50%? input: N#CC1=C(N)Oc2c(ccc3ccccc23)C1c1cc(=O)oc2ccc(Cl)cc12 (stereo not given)
condition not met

// inclusive: growth at least 50%? input: "COc1cc(C(=O)NNC(=O)c2ccccc2C(=O)O)cc(OC)c1OC"
condition not met

// inclusive: growth at least 50%? input: COc1ccc(C2=NN(C(=O)COc3ccc(Cl)cc3)C(O)(c3cc(F)c(Cl)cc3Cl)C2)cc1 (stereo not given)
condition met
